Source: PubChem BioAssay (NCI)

- Test system: UACC-257 melanoma
- Experiment Notes: NCI-60 one-dose screen, 48 h (100 = growth as untreated, 0 = no growth, -100 = all killed)
- Measurement Parameters: 10 µM
About 83,000 compounds went through this panel and 20% of them were active in at least one assay; those are over-represented in the sample as a whole.
Kind request: treat 90% as inclusive, so growth at 90% or higher is Satisfied, anything lower is Not satisfied.

Example cases with answers are listed next.
Compound | System Under Test | Group
N#CCc1csc(Cc2ccccc2)n1 | UACC-257 melanoma | Satisfied
C1CN(CC2CCC(CN3CCOCC3)O2)CCO1 (configuration not stated) | UACC-257 melanoma | Satisfied

Would you kindly look at the next entry?
Query: Quick check: does CCOC(=O)C1=CSC2=NC3=C(CCC/C3=C\c3ccc(Cl)cc3)C(c3ccc(Cl)cc3)N12 (configuration not stated) have growth greater than or equal to 90%?
Reply: Not satisfied

====

- System: M14 melanoma
- Experiment Notes: NCI-60 one-dose screen, 48 h (100 = growth as untreated, 0 = no growth, -100 = all killed)
- Measurement Parameters: 10 µM
The panel holds about 83,000 compounds, 20% with a hit somewhere; the sample as a whole holds those more often. Activity calls are given as the source filed them. The calls were made as follows: active = growth percent below 10; inactive = the rest.
Recorded measurements of growth, one per entry

Check out these entries, answers already filled in.
Molecule | Result Value
COc1cc2cc(Oc3ccc(NC(=O)Nc4ccc(Cl)c(Cl)c4)cc3)c(C)nc2cc1OC | 25.8% (inactive)
COc1cc(C(=O)/C(C)=C/c2c[nH]c3ccccc23)cc(OC)c1OC | -1.18% (active)
CCCN1CN2C(=O)N3CN(CCC)CN4C(=S)N(C1)C2C34 (stereo not drawn) | 94.5% (inactive)
O=C1/C=C/[C@@H](O)[C@@H]2C[C@@H](O)C[C@H]2/C=C/CCC[C@H](C(F)(F)F)O1 | 13.4% (inactive)
C=C(C)[C@@H]1CC[C@]2(COCCC#N)CC[C@]3(C)[C@H](CC[C@@H]4[C@@]5(C)Cc6c([nH]c7ccccc67)C(C)(C)[C@@H]5CC[C@]43C)[C@@H]12 | 98.7% (inactive)

Query: Any idea what growth came out for O=C(N/N=C/c1ccc(Cl)cc1)c1ccc(Cc2n[nH]c(=O)c3cccnc23)cc1 on M14 melanoma?
Reply: 99.6% (inactive)

Query: Could you share what growth was measured for COc1cc(-c2nn(-c3cccc(NC(=O)NCCNC(=O)c4ccccc4)c3)cc2-c2ccncc2)ccc1Cl , tested on M14 melanoma?
Reply: -5.48% (active)

Query: Give M14 melanoma growth for CN1C(=O)C2(Nc3cc(Cl)ccc3S2)c2cc(Cl)ccc21 (stereo not drawn)
Reply: 102% (inactive)

====

- Test system: NCI/ADR-RES ovarian
- Experiment Notes: NCI-60 one-dose screen, 48 h (100 = growth as untreated, 0 = no growth, -100 = all killed)
- Measurement Parameters: 10 µM
- Method: Growth inhibition of the NCI/ADR-RES human […] tumor cell line is measured as a screen for anti-cancer activity. Cells are grown in 96 well plates and exposed to the test compound for 48 hours. Compounds are tested at a single concentration, which is 10^-5 M for most compounds. The reported endpoint is percent growth (GI% or GIPRCNT), where numbers from 0 - 100% represent growth inhibition, and numbers from -100% - 0 represent cell death. For example, a value of 40 represents 60% growth inhibition. […]
About 83,000 compounds went through this panel and 20% of them were active in at least one assay; those are over-represented in the sample as a whole.
Threshold rule: growth greater than or equal to 50% is T; below that, F.

These recorded examples may help you get a feel for the data.
Compound | System Under Test | Group
COc1ccc(C(=O)CSc2nc(-c3cc(OC)ccc3OC)cc(-c3ccc(OC)cc3)c2C#N)cc1 | NCI/ADR-RES ovarian | F
COc1ccc(-c2csc(NC(=O)c3ccc(Cc4n[nH]c(=O)c5cccnc45)cc3)n2)cc1 | NCI/ADR-RES ovarian | T
Cc1c(O)c(=O)ccn1C1CCC(CC2CCC(n3ccc(=O)c(O)c3C)CC2)CC1 (stereo unspecified) | NCI/ADR-RES ovarian | T
Clc1nc2ccc(Br)cc2cc1-c1nc2ccccc2[nH]1 | NCI/ADR-RES ovarian | T
Cc1ccc(C2NC(=S)N3C(c4ccc(C)cc4)NC(=S)N23)cc1 (stereo unspecified) | NCI/ADR-RES ovarian | F

Proceed to the following item.
Query: Is growth for C[C@]12CC[C@@H]3c4ccc(O)cc4CC[C@H]3[C@@H]1CC[C@@H]2NS(=O)(=O)c1ccc(C(F)(F)F)cc1 at or above 50%?
Reply: T

====

- Tested on: SF-295 CNS
- Experiment Notes: NCI-60 one-dose screen, 48 h
- Measurement Parameters: 10 µM
About 83,000 compounds went through this panel and 20% of them were active in at least one assay; those are over-represented in the sample as a whole. Calls of active or inactive are those of the source. How the source made its calls: active means growth percent below 10; inactive means the rest.
# valid calls are active, inactive; nothing else

Compound | Group
COc1cc(-c2nc3ccccc3o2)cc(CN2CCCCC2)c1O | inactive
CCN(CC)CCOc1ccc2c(c1O)C(=O)c1ccccc1C2=O | inactive
CNC(=O)c1cc(Oc2ccc3c(c2)sc2nc(-c4ccc(N)cc4)cn23)ccn1 | inactive
COc1ccc(C(=O)CSc2nc(-c3cc(OC)ccc3OC)cc(-c3ccc(OC)cc3)c2C#N)cc1 | inactive
COc1cc(/C=C/c2cc(/C=C/c3ccc(O)c(OC)c3)n(C(=O)Nc3ccc(C)cc3)n2)ccc1O | active

Query: Please let me know the test result on file for CN1C(C(=O)Nc2ccccn2)=C(O)c2sc(Cl)cc2S1(=O)=O .
Reply: inactive

Query: // outcome(item) with item = CN(C)CCN(Cc1ccccc1)c1ccc2ccccc2n1
Reply: inactive

Query: So what was the verdict on COc1cc(-c2nn(-c3cccc(NC(=O)CCNc4ccc(N5CCOCC5)cc4)c3)cc2-c2ccncc2)ccc1Cl in this test?
Reply: inactive

Query: Hi, sorry to bother you, what did the test record for Nc1ccc(/C=N/Nc2ccnc3c(O)cccc23)c2cccnc12 ?
Reply: inactive

Query: Look up the recorded call for CC(C)(O)CCl in this test.
Reply: inactive

Query: # lookup: test call for OCC1OC(n2cnc3c(NCc4ccco4)ncnc32)C(O)C1O (stereo unspecified)
Reply: inactive

Query: Outcome logged for O=C(Nc1ccccc1)Nc1ncnc2c1ncn2-c1ccccc1 in this assay:
Reply: inactive

Query: Record lookup: outcome of this test for IC(I)I ?
Reply: inactive

Query: Short answer needed: outcome of this test for OCCn1cccn1 ?
Reply: inactive

Query: Recorded test outcome, item CC(C)=CCC/C(C)=C/CC/C(C)=C/CC/C=C(\C)CC/C=C(\C)CCC(=O)Nc1ccn(C2OC(CO)C(O)C2(F)F)c(=O)n1 (stereo unspecified)
Reply: active

Query: Returns: the outcome recorded for Cc1cc(C(C#N)c2ccc(Cl)cc2)c(Cl)cc1NC(=O)c1cc(I)cc(I)c1O (stereo unspecified) in this assay.
Reply: active

====

- Test system: HCT-116 colon
- Experiment Notes: NCI-60 one-dose screen, 48 h (100 = growth as untreated, 0 = no growth, -100 = all killed)
- Measurement Parameters: 10 µM
The panel holds about 83,000 compounds, 20% with a hit somewhere; the sample as a whole holds those more often. Active and inactive are the calls of the source. The calls were made as follows: active = growth percent below 10; inactive = the rest.
Quantity Measured: growth

Molecule | Quantity Measured | Result Value
O=C(N/N=C/c1c(Cl)cccc1Cl)c1ccccc1Nc1cccc(C(F)(F)F)c1 | growth | 93.1% (inactive)

Query: Request: growth, test system HCT-116 colon, entry COc1ccc(-c2cc(-c3ccc(Cl)cc3)nc(SCCCC(=O)NO)n2)cc1
Reply: 8.41% (active)

Query: Provide value of growth for this record tested with HCT-116 colon: CC[C@@H](C(=O)[C@@H](C)[C@@H](O)[C@H](C)[C@@H]1O[C@@H]([C@@H](CC)C(=O)N(CC)CC)CC[C@@H]1C)C1O[C@]2(C=CC(=O)[C@]3(CC[C@@](C)([C@H]4CC[C@](O)(CC)[C@H](C)O4)O3)O2)[C@H](C)C[C@@H]1C (stereo not given in full)
Reply: 5.97% (active)

Query: Give recorded growth with HCT-116 colon for the following molecule: COc1cc(NC(=O)C2=C(N3CCOCC3)/C(=C/c3ccc(Cl)cc3)CC2)cc(OC)c1OC
Reply: 65.7% (inactive)

Query: Please state recorded growth (tested on HCT-116 colon) of CCCC1(CN2c3ccccc3Sc3ccc(Cl)cc32)CCN(CC)C1 (stereo not given)
Reply: -100% (active)

Query: Hi! What's the reported growth for CS(=O)(=O)c1nccc(-c2c(-c3cccc(OCCc4ccccc4)c3)nc3sccn23)n1 on HCT-116 colon?
Reply: 83.9% (inactive)

Query: Give HCT-116 colon growth for O=S(=O)(Oc1ccc(-c2ccc3sccc3c2)cc1)c1ccc(F)cc1
Reply: 102% (inactive)

Query: Give the reported growth for Cc1cn(-c2cc(F)cc(NC(=O)c3ccc(C)c(Nc4nccc(-c5cccnc5)n4)c3)c2)cn1 (system: HCT-116 colon).
Reply: 6.97% (active)

Query: // map C=CCSC(CC)(CC)C(=O)NC to recorded growth (system: HCT-116 colon)
Reply: 94% (inactive)

Query: Which growth is reported with HCT-116 colon for this entry: Cc1ccc(C2NC(=S)N3C(c4ccc(C)cc4)NC(=S)N23)cc1 (stereo not given) ?
Reply: 1.28% (active)

Query: For the record COc1cc(C2C(C#N)=C(N)Oc3cc(O)ccc32)cc(OC)c1OC (stereo not given) , what value of growth is listed for HCT-116 colon?
Reply: 17.8% (inactive)
